Target: human STING (Homo sapiens)
Construct: N-terminal cysteine (thiol coupling handle)
Sequence (Q86WV6 whole entry): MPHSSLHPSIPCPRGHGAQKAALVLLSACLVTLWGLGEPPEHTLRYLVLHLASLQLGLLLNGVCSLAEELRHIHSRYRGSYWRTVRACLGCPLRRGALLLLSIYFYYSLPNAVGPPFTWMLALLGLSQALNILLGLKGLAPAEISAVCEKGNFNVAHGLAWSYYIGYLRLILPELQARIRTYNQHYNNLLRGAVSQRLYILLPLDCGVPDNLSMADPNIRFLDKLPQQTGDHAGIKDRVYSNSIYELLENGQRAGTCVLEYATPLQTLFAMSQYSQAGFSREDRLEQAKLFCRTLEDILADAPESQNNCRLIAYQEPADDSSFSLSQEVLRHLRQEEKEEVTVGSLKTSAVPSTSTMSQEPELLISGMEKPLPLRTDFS
Assay: surface plasmon resonance (SPR)-based hSTING binding assay
Settings: SPR, hSTING immobilized on CM5 chip, 25 °C
Description: Direct measurement of affinity constants provide assistance in pharmacokinetic and pharmacodynamic studies. In this study, we evaluated the binding affinities between human STING and the synthesized CNDs by the surface plasmon resonance (SPR)-based assay, which loaded minuscule amounts of STING protein on a biosensor chip, and free-labeled samples were directly detected in short measurement times. […]
Rule: measured dissociation rate constant koff below 0.0007 s⁻¹ gets condition met; anything equal to or greater than 0.0007 s⁻¹ gets condition not met.

Would you please look over these solved cases?
| Compound | Assigned category |
| --- | --- |
| Cc1cn(C2OC3COP(=O)(O)OC4C(O)C(COP(=O)(O)OC3C2O)OC4n2cnc3c(=O)[nH]c(N)nc32)c(=O)nc1N (stereo not drawn) | condition met |
| Cc1cn([C@@H]2O[C@@H]3COP(=O)(O)O[C@H]4[C@@H](O)[C@H](n5cnc6c(N)ncnc65)O[C@@H]4COP(=O)(O)O[C@@H]2[C@@H]3O)c(=O)nc1N [Compound 12c, 2′,3′-cyclic-5-methylcytidine-adenosine] | condition not met |
| Cc1cn([C@@H]2O[C@@H]3COP(O)(=S)O[C@@H]4[C@H](O)[C@@H](COP(O)(=S)O[C@H]3[C@H]2O)O[C@H]4n2cnc3c(=O)[nH]c(N)nc32)c(=O)[nH]c1=O (stereo partly drawn) | condition met |

Req: Is dissociation rate constant koff strictly under 0.0007 s⁻¹ for the entry `Cc1cn([C@@H]2O[C@@H]3COP(=O)(O)O[C@@H]4[C@H](O)[C@@H](COP(=O)(O)O[C@H]3[C@H]2O)O[C@H]4n2cnc3c(=O)[nH]c(N)nc32)c(=O)[nH]c1=O` ?
Resp: condition not met

Req: Please state whether dissociation rate constant koff is below 0.0007 s⁻¹ for Cc1cn([C@@H]2O[C@@H]3COP(O)(=S)O[C@H]4[C@@H](O)[C@H](n5cnc6c(N)ncnc65)O[C@@H]4COP(O)(=S)O[C@@H]2[C@@H]3O)c(=O)[nH]c1=O (stereo partly drawn) [Compound 12b]
Resp: condition not met

Req: Report whether reported dissociation rate constant koff is lower than 0.0007 s⁻¹ (strictly) for Cc1cn([C@@H]2O[C@@H]3COP(=O)(O)O[C@H]4[C@@H](O)[C@H](n5cnc6c(N)ncnc65)O[C@@H]4COP(=O)(O)O[C@@H]2[C@@H]3O)c(=O)[nH]c1=O [Compound 12a, 2′,3′-cyclic-5-methyluridine-adenosine]
Resp: condition not met

###

Molecular target: human STING (Homo sapiens)
Construct: N-terminal cysteine (thiol coupling handle)
Test: surface plasmon resonance (SPR)-based hSTING binding assay
Details: SPR, hSTING immobilized on CM5 chip, 25 °C; read-out: Ka
Endpoint label: kon (M⁻¹ s⁻¹)
Answer in M⁻¹ s⁻¹, number only, no unit symbol.

Recorded results for 2 molecules are shown here.
| Molecule | Result |
| --- | --- |
| Cc1cn([C@@H]2O[C@@H]3COP(O)(=S)O[C@H]4[C@@H](O)[C@H](n5cnc6c(N)ncnc65)O[C@@H]4COP(O)(=S)O[C@@H]2[C@@H]3O)c(=O)[nH]c1=O (stereo partly drawn) [Compound 12b] | 289 |
| Cc1cn([C@@H]2O[C@@H]3COP(=O)(O)O[C@H]4[C@@H](O)[C@H](n5cnc6c(N)ncnc65)O[C@@H]4COP(=O)(O)O[C@@H]2[C@@H]3O)c(=O)[nH]c1=O [Compound 12a, 2′,3′-cyclic-5-methyluridine-adenosine] | 208 |

Next molecule, kon to be filled in.
kon reported for this molecule Cc1cn([C@@H]2O[C@@H]3COP(=O)(O)O[C@H]4[C@@H](O)[C@H](n5cnc6c(N)ncnc65)O[C@@H]4COP(=O)(O)O[C@@H]2[C@@H]3O)c(=O)nc1N [Compound 12c, 2′,3′-cyclic-5-methylcytidine-adenosine] : 198
